Molecular target: 16S ribosomal subunit RNA target
Assay: Mass spectrometry based binding assay (FTICR), 16S
Conditions: FTICR mass spectrometry; run at 100 nM RNA; Example 105
Listed here: items and their measured log10 Kd.
Heads up: the numbers are on a log10 scale; they represent Kd in nM.

The following molecules have reported results that may help.
• NCC1OC(OC2C(CO)OC(OC3C(O)C(N)CC(N)C3OC3OC(CO)C(O)C(O)C3N)C2OCCNCCc2ccc3ccccc3c2)C(N)C(O)C1O (centres unmarked) [Compound 9ak] = 2.85
• NCCNCCOC1C(OC2C(O)C(N)CC(N)C2OC2OC(CO)C(O)C(O)C2N)OC(CO)C1OC1OC(CN)C(O)C(O)C1N (centres unmarked) [Compound 9d] = 2.85
• NCC1OC(OC2C(CO)OC(OC3C(O)C(N)CC(N)C3OC3OC(CO)C(O)C(O)C3N)C2OCCNc2cccnc2)C(N)C(O)C1O (centres unmarked) [Compound 9a] = 2.78
• NCCOC1C(OC2C(O)C(N)CC(N)C2OC2OC(CO)C(O)C(O)C2N)OC(CO)C1OC1OC(CN)C(O)C(O)C1N (centres unmarked) [Compound 9f] = 2.48
• NCC1OC(OC2C(CO)OC(OC3C(O)C(N)CC(N)C3OC3OC(CO)C(O)C(O)C3N)C2OCCNCCc2cccnc2)C(N)C(O)C1O (centres unmarked) [Compound 9o] = 2.30

Query: Bench note: what log10 Kd did NCC1OC(OC2C(CO)OC(OC3C(O)C(N)CC(N)C3OC3OC(CO)C(O)C(O)C3N)C2OCCNCCc2ccccc2)C(N)C(O)C1O (centres unmarked) [Compound 9p] show?
Reply: 2.00

Query: Bench note: what log10 Kd did NC[C@@H]1O[C@H](O[C@H]2[C@@H](OCCCCCc3ccccc3)[C@H](O[C@@H]3[C@@H](O)[C@H](N)C[C@H](N)[C@H]3O[C@H]3O[C@H](CO)[C@@H](O)[C@H](O)[C@H]3N)O[C@@H]2CO)[C@H](N)[C@@H](O)[C@@H]1O [Compound 14c] show?
Reply: 4.60

Query: Bench note: what log10 Kd did NCC1OC(OC2C(CO)OC(OC3C(O)C(N)CC(N)C3OC3OC(CO)C(O)C(O)C3N)C2OCCNc2ccccn2)C(N)C(O)C1O (centres unmarked) [Compound 9u] show?
Reply: 3.70

* * *

Target: 16S ribosomal subunit RNA target
Assay: Mass spectrometry based binding assay (FTICR), 16S
Details: FTICR mass spectrometry; run at 100 nM RNA; Example 105
measurementName: Kd
Record the result as number plus unit.

The following molecules have reported results that may help.
* NCC1OC(OC2C(CO)OC(OC3C(O)C(N)CC(N)C3OC3OC(CO)C(O)C(O)C3N)C2OCCNCc2ccnc(N)c2)C(N)C(O)C1O (centres unmarked) | 20 nM
* NCC1OC(OC2C(CF)OC(OC3C(O)C(N)CC(N)C3OC3OC(CO)C(O)C(O)C3N)C2O)C(N)C(O)C1O (centres unmarked) | 1100 nM
* NCC1OC(OC2C(CO)OC(OC3C(O)C(N)CC(N)C3OC3OC(CO)C(O)C(O)C3N)C2OCCNCC2CCCNC2)C(N)C(O)C1O (centres unmarked) | 300 nM

Query: Item NCC1OC(OC2C(CO)OC(OC3C(O)C(N)CC(N)C3OC3OC(CO)C(O)C(O)C3N)C2OCCNCc2cccnc2)C(N)C(O)C1O (centres unmarked) with 16S ribosomal subunit RNA target - Kd?
Reply: 900 nM

Query: Item NC[C@@H]1O[C@H](O[C@H]2[C@@H](OCCO)[C@H](O[C@@H]3[C@@H](O)[C@H](N)C[C@H](N)[C@H]3O[C@H]3O[C@H](CO)[C@@H](O)[C@H](O)[C@H]3N)O[C@@H]2CO)[C@H](N)[C@@H](O)[C@@H]1O [Compound 12a] with 16S ribosomal subunit RNA target - Kd?
Reply: 900 nM

* * *

Target: 18S ribosomal subunit RNA target
Assay: Mass spectrometry based binding assay (FTICR), 18S
Details: Example 108
measurementName: Kd (µM)
Give a bare numeral; the unit µM is implied.

Query: Bench note: what Kd did CNCC1OC(OC2C(N)CC(N)C(O)C2OC2OC(CO)C(OC3OC(CN)C(O)C(O)C3N)C2O)C(N)C(O)C1O (stereo not drawn) [Compound 15e] show?
Reply: 1.2

Query: Bench note: what Kd did NCC1OC(OC2C(CO)OC(OC3C(O)C(N)CC(N)C3OC3OC(CNCCc4ccccc4)C(O)C(O)C3N)C2O)C(N)C(O)C1O (stereo not drawn) [Compound 15j] show?
Reply: 2.2

Query: Bench note: what Kd did CC(C)NCC1OC(OC2C(N)CC(N)C(O)C2OC2OC(CO)C(OC3OC(CN)C(O)C(O)C3N)C2O)C(N)C(O)C1O (stereo not drawn) [Compound 15h] show?
Reply: 1.2

* * *

Listed here: items and their measured MIC E. Coli..
Test system: E. Coli
Experiment: MIC, E. Coli
Type: cell-based
Conditions: Example 106

The following compounds have reported results that may help.
• NCC1OC(OC2C(CO)OC(OC3C(O)C(N)CC(N)C3OC3OC(CO)C(O)C(O)C3N)C2OCCNCCc2ccc(-c3ccccc3)cc2)C(N)C(O)C1O (centres unmarked) = 20 to 40 µM
• COc1cc(CCNCCOC2C(OC3C(O)C(N)CC(N)C3OC3OC(CO)C(O)C(O)C3N)OC(CO)C2OC2OC(CN)C(O)C(O)C2N)cc(OC)c1 (centres unmarked) = 10 to 20 µM
• NCC1OC(OC2C(CO)OC(OC3C(O)C(N)CC(N)C3OC3OC(CO)C(O)C(O)C3N)C2OCCN(CCc2ccccc2)C(=O)c2ccccc2)C(N)C(O)C1O (centres unmarked) = 10 to 20 µM
• NCC1OC(OC2C(CO)OC(OC3C(O)C(N)CC(N)C3OC3OC(CO)C(O)C(O)C3N)C2OCCNC23CC4CC(CC(O)(C4)C2)C3)C(N)C(O)C1O (centres unmarked) = 20 to 40 µM

Query: Item CC(=O)N(CCOC1C(OC2C(O)C(N)CC(N)C2OC2OC(CO)C(O)C(O)C2N)OC(CO)C1OC1OC(CN)C(O)C(O)C1N)CCc1ccccc1 (centres unmarked) with E. Coli - MIC E. Coli.?
Reply: 10 to 20 µM

* * *

Molecular target: 18S ribosomal subunit RNA target
Assay: Mass spectrometry based binding assay (FTICR), 18S
Details: Example 108
Listed here: items and their measured Kd.
Give a bare numeral; the unit nM is implied.

• CN(C)CC1OC(OC2C(N)CC(N)C(O)C2OC2OC(CO)C(OC3OC(CN)C(O)C(O)C3N)C2O)C(N)C(O)C1O (stereo not drawn) [Compound 15a] = 700

Query: Bench note: what Kd did NCC1OC(OC2C(CO)OC(OC3C(O)C(N)CC(N)C3OC3OC(CN4CCOCC4)C(O)C(O)C3N)C2O)C(N)C(O)C1O (stereo not drawn) [Compound 15c] show?
Reply: 3000

* * *

Listed here: items and their measured log10 of Kd.
Molecular target: 18S ribosomal subunit RNA target
Experiment: Mass spectrometry based binding assay (FTICR), 18S
Conditions: FTICR mass spectrometry; Example 105
Heads up: the numbers are on a log10 scale; they represent Kd in µM.

• NCC1OC(OC2C(CO)OC(OC3C(O)C(N)CC(N)C3OC3OC(CO)C(O)C(O)C3N)C2OCCNc2ccccn2)C(N)C(O)C1O (stereo not drawn) = 1.34
• NCC1OC(OC2C(CO)OC(OC3C(O)C(N)CC(N)C3OC3OC(CO)C(O)C(O)C3N)C2OCCNCCc2ccc3ccccc3c2)C(N)C(O)C1O (stereo not drawn) = 0.54
• NCC1OC(OC2C(CO)OC(OC3C(O)C(N)CC(N)C3OC3OC(CO)C(O)C(O)C3N)C2OCCNCc2nc3ccccc3[nH]2)C(N)C(O)C1O (stereo not drawn) = 1.04
• NCC1OC(OC2C(CO)OC(OC3C(O)C(N)CC(N)C3OC3OC(CO)C(O)C(O)C3N)C2OCCNCC2CCCNC2)C(N)C(O)C1O (stereo not drawn) = 0.41

Query: Bench note: what log10 of Kd did NCC1OC(OC2C(CO)OC(OC3C(O)C(N)CC(N)C3OC3OC(CO)C(O)C(O)C3N)C2OCCNC2CCCNC2)C(N)C(O)C1O (stereo not drawn) show?
Reply: 0.70

Query: Bench note: what log10 of Kd did NCC1OC(OC2C(CO)OC(OC3C(O)C(N)CC(N)C3OC3OC(CO)C(O)C(O)C3N)C2OCCNCc2ccc(N)nc2)C(N)C(O)C1O (stereo not drawn) show?
Reply: -0.30

* * *

Molecular target: 18S ribosomal subunit RNA target
Test: Mass spectrometry based binding assay (FTICR), 18S
Conditions: FTICR mass spectrometry; Example 105
measurementName: pKd
Quick note: pKd means taking -log10 of the concentration in moles per liter.

- NC[C@@H]1O[C@H](O[C@H]2[C@@H](OCCO)[C@H](O[C@@H]3[C@@H](O)[C@H](N)C[C@H](N)[C@H]3O[C@H]3O[C@H](CO)[C@@H](O)[C@H](O)[C@H]3N)O[C@@H]2CO)[C@H](N)[C@@H](O)[C@@H]1O [Compound 12a]: 5.14
- CN(C)CCOC[C@H]1O[C@@H](O[C@@H]2[C@@H](O)[C@H](N)C[C@H](N)[C@H]2O[C@H]2O[C@H](CO)[C@@H](O)[C@H](O)[C@H]2N)[C@H](O)[C@@H]1O[C@H]1O[C@@H](CN)[C@@H](O)[C@H](O)[C@H]1N: 4.17

Field: next compound
Query: Bench note: what pKd did NCC1OC(OC2C(CO)OC(OC3C(O)C(N)CC(N)C3OC3OC(CO)C(O)C(O)C3N)C2OCCNCCCc2ccccc2)C(N)C(O)C1O (stereo not drawn) show?
Reply: 5.20
